Would you mind telling me the reported abundance fitness of each entry?
B1: Cyclin-F, residues 28 to 80; numbered along this chain, P41002 (parent)
chain: RNLTILSLPEDVLFHILKWLSVEDILAVRAVHSQLKDLVDNHASVWACASFQE

- Variants of: B1
- procedure.details: abundance fitness (aPCA) (normalised: wild type 0, dead -1); higher = more abundant; growth selection in yeast, the domain comes from the species named
- condition.label: Homo sapiens
Answers are plain numbers.

In [3]: df
Out[3]:
   mutation_list  measurement
0           W46N       -0.128
1           A49M        -0.51
2           Q34F         -0.4

Each of the following entries comes with a recorded value; kindly state abundance fitness for each.
1. S7W
2. V22D
3. S50V

1. -0.693
2. -0.405
3. -0.621

Each of the following entries comes with a recorded value; kindly state abundance fitness for each.
1. S44K
2. D24C
3. N41W
4. E53V

1: -0.104; 2: -0.716; 3: -0.733; 4: -0.538

Each of the following entries comes with a recorded value; kindly state abundance fitness for each.
1. W19P
2. V12A
3. L26K
4. I16M

-0.458
-0.816
-0.043
-0.32
